Listed molecules paired with reported Emax
targetOfAssay: human Farnesoid X receptor ligand-binding domain/Gal4 DNA binding domain chimera (Homo sapiens)
Construct: host or cells: FXR-UAS-bla HEK 293T (CellSensor UAS-bla HEK 293T)
Sequence (Q96RI1 262-486 limits assumed): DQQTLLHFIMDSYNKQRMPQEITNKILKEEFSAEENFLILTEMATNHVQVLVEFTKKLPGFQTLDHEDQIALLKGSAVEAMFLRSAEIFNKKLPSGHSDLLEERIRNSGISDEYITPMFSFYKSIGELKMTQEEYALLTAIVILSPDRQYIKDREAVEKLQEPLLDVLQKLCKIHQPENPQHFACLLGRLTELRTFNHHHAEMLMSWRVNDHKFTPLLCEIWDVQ
testMethodNotes: Cell-based assay of FXR activation (FXR-UAS-bla HEK 293T beta-lactamase reporter)
testSettings: HEK-293T, read-out: Cellular % Efficacy
Express the result in % but write the number alone.

Problem: Would you mind telling me what Emax value was observed for `O=C(O)c1cc(C2CCOCC2)c2nc(N3C[C@@H]4C[C@H]3C[C@H]4OCc3c(C4CC4)cnn3-c3c(Cl)cccc3Cl)sc2c1` ?
Solution: 101

Problem: What do you get for `O=C(O)c1ccc(N2C[C@@H]3C[C@H]2C[C@H]3OCc2c(-c3c(Cl)cccc3Cl)cnn2C2CC2)cc1` ?
Solution: 117

Problem: What do you get for `O=C(O)CCc1ccc(N2C[C@@H]3C[C@H]2C[C@H]3OCc2c(C3CC3)cnn2-c2c(Cl)cccc2Cl)c(F)c1` ?
Solution: 99

Problem: What do you get for `O=C(O)c1cc(O[C@@H]2CCOC2)c2nc(N3C[C@@H]4C[C@H]3C[C@H]4OCc3c(C4CC4)nnn3-c3c(Cl)cccc3Cl)sc2c1` ?
Solution: 106

Problem: What do you get for `O=C(O)CCc1ccc(N2C[C@@H]3C[C@H]2C[C@H]3OCc2c(C3CC3)cnn2-c2c(Cl)cccc2Cl)cc1F` ?
Solution: 98

Problem: What do you get for O=C(O)c1cc([C@@H]2CCOC2)c2nc(N3C[C@@H]4C[C@H]3C[C@H]4OCc3c(C4CC4)nnn3-c3c(Cl)cccc3Cl)sc2c1 (single isomer, unassigned) ?
Solution: 100

----------
Listed compounds paired with reported EC50
targetOfAssay: ligand binding domain of human FXR (Homo sapiens, UniProt Q96RI1)
Construct: purchased Thermofisher (LanthaScreen) PV4833
testMethodNotes: biochemical
testSettings: −log EC50, concentration required to produce 50% activation; FRET 520 nm/495 nm, 1 hour at room temperature; read-out: Ligand Binding pEC50 (converted)
Express the result in nM but write the number alone.

>>> measuredresult("O=C(NS(=O)(=O)C1CCOCC1)c1ccc(N2C(=O)[C@@H]3C[C@H]2C[C@H]3OCc2c(C3CC3)cnn2-c2c(Cl)cccc2Cl)cc1F")
5.01

Problem: Would you mind telling me what EC50 value was observed for `O=C(O)c1cc(O[C@@H]2CCOC2)c2nc(N3C[C@@H]4C[C@H]3C[C@H]4OCc3c(C4CC4)nnn3-c3c(Cl)cccc3Cl)sc2c1` ?
Solution: 3.98

Problem: What do you get for `O=C(O)c1cc(C2CCOCC2)c2nc(N3C[C@@H]4C[C@H]3C[C@H]4OCc3c(C4CC4)cnn3-c3c(Cl)cccc3Cl)sc2c1` ?
Solution: 2.51

Problem: What do you get for `O=C(O)c1ccc(N2C[C@@H]3C[C@H]2C[C@H]3OCc2c(C3CC3)cnn2-c2c(F)cccc2F)cc1F` ?
Solution: 158

Problem: What do you get for `O=C(O)CCc1ccc(N2C[C@@H]3C[C@H]2C[C@H]3OCc2c(C3CC3)nnn2-c2c(Cl)cccc2Cl)cc1F` ?
Solution: 63.1
